# Run parameters: in THF, 303.15 K
Quantity: solubility (mole fraction)
Answers are plain numbers.

Task item: Recorded solubility (mole fraction) for O=P(NCc1ccccc1)(Oc1ccccc1)Oc1ccccc1 , please?
Reply: 0.132

###

# Run parameters: in toluene, 293.15 K
Quantity: solubility (mole fraction)
Answers are plain numbers.

Task item: Could you tell me which solubility (mole fraction) is on file for O=P(NCc1ccccc1)(Oc1ccccc1)Oc1ccccc1 ?
Reply: 0.0109

###

# Run parameters: in dichloromethane, 298.15 K
Quantity: solubility (mole fraction)
Answers are plain numbers.

Task item: May I ask what solubility (mole fraction) has been recorded for O=P(NCc1ccccc1)(Oc1ccccc1)Oc1ccccc1 ?
Reply: 0.0965

###

# Run parameters: in methanol, 313.15 K
Quantity: solubility (mole fraction)
Answers are plain numbers.

Task item: Quick check: solubility (mole fraction) of O=P(NCc1ccccc1)(Oc1ccccc1)Oc1ccccc1 ?
Reply: 0.0449

###

# Run parameters: in methyl acetate, 298.15 K
Quantity: solubility (mole fraction)

Task item: Looking for the measured solubility (mole fraction) of O=P(NCc1ccccc1)(Oc1ccccc1)Oc1ccccc1 , can you help?
Reply: 0.0309

###

# Run parameters: in chloroform, 303.15 K
Quantity: solubility (mole fraction)

Task item: Given the entry O=P(NCc1ccccc1)(Oc1ccccc1)Oc1ccccc1 , report its measured solubility (mole fraction).
Reply: 0.143
